Taken from PubChem BioAssay AID1745845.

- Procedure Summary: Primary qHTS for Inhibitors of ATXN expression; note: nearly all actives have a fitted effect of over 55% in size
- Recorded Conditions: HEK-293 ATXN2-luciferase reporter, luminescence, 24 h; series mostly up to 57 µM
The campaign covered roughly 360,000 compounds. About 2,600 (0.72%) were called active. Another 5% or so got no clear call; they are omitted. Calls come from the whole dose curve; as a rule, active = well fitted inhibition curve with a large enough effect; inconclusive = small, poorly fitted or top-dose-only effect; inactive = no such curve, though single readings can be large or run the other way. What follows is part of a selection rich in actives, with near analogues and random picks from the rest.
Field 'call' accepts active, inactive

>>> class_label("COc1cccc(NC(=O)C2CCN(c3cc(C)nc4c(-c5ccc(Cl)cc5)c(C)nn34)CC2)c1")
"inactive"
>>> class_label("COc1ccc(-n2nc3c(N4CCC(C(=O)NCc5ccccc5)CC4)nnc(C)c3c2C)cc1")
"inactive"
>>> class_label("COc1ccccc1CNC(=O)NCc1noc2ccc(C)cc12")
"inactive"

Prompt: Outcome logged for `Cc1cc(NC(=O)/C=C/C(=O)N(CC(=O)NC2CCCC2)c2ccc(F)cc2)no1` in this assay:
Response: inactive

Prompt: What outcome does the record of this test show for `COc1ccc(OC)c(-c2nc(C(N)=O)c3c(n2)n(-c2ccc4c(c2)OCO4)c(=O)n3C)c1` ?
Response: inactive

Prompt: Which outcome was entered for the compound CC(=O)N1CCCc2cc(S(=O)(=O)N3CCCC(C(=O)N4CCN(c5cccc(Cl)c5)CC4)C3)ccc21 (stereo not drawn) in this test?
Response: active

Prompt: Call for entry Cc1cc(NC(=O)CCC(=O)N(c2cccc(F)c2)C(C(=O)NC2CCCC2)c2ccncc2)no1 (stereo not drawn) :
Response: inactive

Prompt: Which outcome was entered for the compound `Cc1cc(Cl)ccc1-c1nc(NCCN(C)C)nc2ccsc12` in this test?
Response: inactive

Prompt: What call does the record list for `O=c1oc2ccccc2cc1-c1cn(-c2ccccc2)c(=S)[nH]1` ?
Response: active

Prompt: Can you look up the reported call for `CC(=O)N1CCCc2cc(S(=O)(=O)CCC(=O)N3CCN(c4ccccc4)CC3)ccc21` for me?
Response: inactive

Prompt: What is the recorded call for this compound in the test? `COc1cc(Cl)cn2c(-c3cccc(NC4CNC4)n3)cnc12`
Response: inactive

Prompt: Please state the recorded outcome for this compound: `C/C(=N\NC(=O)Cc1ccc(Cl)cc1)c1ccccn1`
Response: active

Prompt: Assay outcome for `NN=C(NN=Cc1ccccc1)c1ccccc1` : what was it?
Response: inactive
